Cited source for all entries: ChEMBL document CHEMBL1149426

- measurement protocol: Inhibitory activity against 5HT receptor
pIC50: −log10 of the molar value.
measured metric: pIC50

The value of pIC50 measured for the compound CC(C)(C)c1nc(N2CCN(CCCCN3C(=O)CCC(=O)c4ccccc43)CC2)cc(C(F)(F)F)n1 turned out to be < 5.00

====

- assay target: D(3) dopamine receptor (Homo sapiens)
- Sequence (P35462 whole entry): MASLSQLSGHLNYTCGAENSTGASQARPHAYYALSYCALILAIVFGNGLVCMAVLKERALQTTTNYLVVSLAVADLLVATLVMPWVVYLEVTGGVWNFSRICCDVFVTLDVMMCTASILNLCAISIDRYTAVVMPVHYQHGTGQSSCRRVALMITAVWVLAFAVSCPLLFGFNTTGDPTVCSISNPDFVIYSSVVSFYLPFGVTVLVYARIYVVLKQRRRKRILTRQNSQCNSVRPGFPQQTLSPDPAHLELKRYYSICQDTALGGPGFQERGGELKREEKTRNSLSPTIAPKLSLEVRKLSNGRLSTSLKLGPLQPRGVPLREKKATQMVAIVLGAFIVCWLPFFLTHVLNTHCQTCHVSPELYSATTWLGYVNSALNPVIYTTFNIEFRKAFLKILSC
# note: boundary value 10 nM maps to not fulfilled; Ki below it maps to fulfilled

Recorded results for 2 molecules are shown here.
structure smiles string: C[C@@H](CCCN1C(=O)CCc2ccccc21)N1CCN(c2cc(C(F)(F)F)nc(C(C)(C)C)n2)CC1
class name: not fulfilled
--
structure smiles string: CC(C)(C)c1nc(N2CCN(CCCCN3Cc4ccccc4CC3=O)CC2)cc(C(F)(F)F)n1
class name: not fulfilled

Query: Hello, is Ki of the following molecule strictly smaller than 10 nM? C/C(=C\CN1CCN(c2cc(C(F)(F)F)nc(C(C)(C)C)n2)CC1)CN1C(=O)CCc2ccccc21
Reply: not fulfilled

Query: API: query returns whether the molecule falls strictly under 10 nM in Ki. Query: CC(C)(C)c1nc(N2CCN(CCCCN3C(=O)CC(=O)c4ccccc43)CC2)cc(C(F)(F)F)n1
Reply: not fulfilled

Query: Please check: Ki for CC(C)(C)c1nc(N2CCN(CCCCN3C(=O)CCSc4ccccc43)CC2)cc(C(F)(F)F)n1 , strictly under 10 nM or not?
Reply: fulfilled

Query: Ki strictly < 10 nM for this molecule? CC(C)(C)c1nc(N2CCN(CCCN3C(=O)CCc4ccccc43)CC2)cc(C(F)(F)F)n1
Reply: not fulfilled

Query: Would you kindly verify if Ki of CC(C)(C)c1nc(N2CCN(CCCCN3C(=O)COc4ccccc43)CC2)cc(C(F)(F)F)n1 is strictly less than 10 nM?
Reply: not fulfilled

Query: Please indicate whether the reported Ki of CC(C)(C)c1nc(N2CCN(CCCCn3c(=O)ccc4ccccc43)CC2)cc(C(F)(F)F)n1 is strictly below 10 nM.
Reply: not fulfilled

Query: Given CC(C)(C)c1nc(N2CCN(CCCCN3C(=O)CCc4ccccc43)CC2)cc(C(F)(F)F)n1 , is recorded Ki strictly lower than 10 nM?
Reply: fulfilled

Query: Item CC(C)(C)c1nc(N2CCN(CCCCN3CCC(=O)CCC3=O)CC2)cc(C(F)(F)F)n1 : Ki beneath 10 nM, strictly?
Reply: fulfilled
